- study_system: Human α2δ-1 subunit of Cav2.2 calcium channel (Homo sapiens)
- Sequence (P54289 25-1103): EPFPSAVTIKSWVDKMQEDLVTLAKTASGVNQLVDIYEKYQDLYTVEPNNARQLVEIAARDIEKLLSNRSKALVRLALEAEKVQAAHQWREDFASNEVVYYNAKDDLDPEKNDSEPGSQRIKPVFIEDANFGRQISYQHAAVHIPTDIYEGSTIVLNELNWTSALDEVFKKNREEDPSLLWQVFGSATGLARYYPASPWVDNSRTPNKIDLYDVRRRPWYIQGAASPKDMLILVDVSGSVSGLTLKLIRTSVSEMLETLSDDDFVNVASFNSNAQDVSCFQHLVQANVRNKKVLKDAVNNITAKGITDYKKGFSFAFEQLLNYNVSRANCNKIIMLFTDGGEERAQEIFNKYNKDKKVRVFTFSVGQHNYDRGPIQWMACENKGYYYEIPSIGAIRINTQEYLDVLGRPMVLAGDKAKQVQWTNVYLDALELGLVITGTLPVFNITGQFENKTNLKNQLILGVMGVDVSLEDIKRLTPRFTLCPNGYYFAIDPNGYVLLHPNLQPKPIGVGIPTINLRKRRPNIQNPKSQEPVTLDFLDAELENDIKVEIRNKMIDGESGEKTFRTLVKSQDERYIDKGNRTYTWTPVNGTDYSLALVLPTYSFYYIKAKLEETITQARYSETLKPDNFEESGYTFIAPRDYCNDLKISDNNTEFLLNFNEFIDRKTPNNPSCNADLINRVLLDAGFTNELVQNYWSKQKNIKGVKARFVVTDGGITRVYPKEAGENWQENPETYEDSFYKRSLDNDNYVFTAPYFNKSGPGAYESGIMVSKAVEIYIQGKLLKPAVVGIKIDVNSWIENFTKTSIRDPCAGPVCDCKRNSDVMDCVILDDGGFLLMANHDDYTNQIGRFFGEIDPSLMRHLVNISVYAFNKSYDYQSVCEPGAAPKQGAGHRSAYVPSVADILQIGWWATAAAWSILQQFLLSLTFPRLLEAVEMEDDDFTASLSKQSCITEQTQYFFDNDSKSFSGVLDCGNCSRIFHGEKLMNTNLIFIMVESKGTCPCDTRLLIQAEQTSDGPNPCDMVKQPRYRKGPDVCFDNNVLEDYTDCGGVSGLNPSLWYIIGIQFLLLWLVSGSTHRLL
- protocol_details: Human α2δ-1 subunit of Cav2.2 calcium channel assay ([3H]-Gabapentin)
- Format: binding
- recorded_conditions: human α2δ-1 enriched membranes, 15 nM [3H]-Gabapentin; read-out: Binding α2δ-1 (Ki)
pKi: −log10 of the molar value.
readout_kind: pKi

{"molecule": "CNCCC(Oc1ccc(C(N)=O)cc1-n1nc2c(N(C)C)nnc(C)c2c1C)c1ccccc1 (stereo not shown)", "study_system": "Human α2δ-1 subunit of Cav2.2 calcium channel (Homo sapiens)", "measured_result": "< 5.30"}

Return reported pKi; argument: Cc1nnc(N(C)C)c2nn(-c3ccccc3OCC(N)c3ccccc3)c(C)c12 (stereo not shown) 5.30 to 6.30

Return reported pKi; argument: Cc1nnc(N(C)C)c2nn(-c3ccccc3OC3CCNC3)c(C)c12 (stereo not shown) < 5.30

Return reported pKi; argument: CNCCC(Oc1ccccc1-n1nc2c(N(C)C)nnc(C)c2c1C)c1ccc(C#N)cc1 (stereo not shown) 5.30 to 6.30
